Tested on: A2780
testName: Cytotoxicity against human A2780 cells
Format: cell-based
Property: IC50; scope: individual molecules
Response body: numeric value in nM, unit text excluded.

Here is how some molecules turned out for IC50.
molecule="C=CC(=C)CC[C@]1(C)[C@H](C)C[C@H](O)[C@@]2(C=O)C(C=O)=C[C@H](OC(=O)CCC)C[C@@H]12 [CASEANIGRESCEN D2]" testresult=1500
molecule=C=CC(=C)CC[C@]1(C)[C@H](C)[C@@H](OC(C)=O)[C@H](O)[C@@]23C(=C[C@H](OC(=O)CCC)C[C@@H]12)[C@@H](OC(C)=O)O[C@H]3OC(C)=O testresult=1400

From here, focus on the item given below.
Asked: Form entry - test system: A2780; read-out: IC50; molecule: C=CC(=C)CC[C@]1(C)[C@H](C)[C@@H](OC(C)=O)[C@H](O)[C@@]2(C=O)C(C=O)=C[C@H](OC(=O)CCC)C[C@@H]12
Given back: 3500
